Values from patent US20230049152A1

Target: T1, human CCR8 (human, UniProt P51685 1-355)
T1 construct: the assay field says which; also called hCCR8; huCCR8
Assay: flow cytometry, CHO-huCCR8.Gna15 cells, relative to rb.Ab4
measurement_name: Relative MFI (ratio)
Give the value in ratio but do not write ratio after it.

As a guide, the following entries are already answered.
>  <binder>
hu.Ab4.H7L1 (antibody, human IgG1, kappa, V domains shown) VH: EQQLLESGGGLVQPGGSLRLSCAVSGFSLSNYAMIWVRQAPGKGLEWVGTISLGGYTYYANWAKGRFTISKDSSKNTVYLQMNSLRAEDTAVYFCARARWSTDSAIYTYAFDPWGPGTLVTVSS VL: DYQMTQSPSSLSASVGDRVTITCQASQSISSYLSWYQQKPGKRPKLLIYKASTLASGVPSRFSGSGSGTDFTLTISSLQPEDFATYYCQQGYTSSNIDNIFGGGTKVEIKR

>  <measure_unit>
ratio

>  <Relative MFI>
0.44

$$$$
>  <binder>
hu.Ab4.H9L1 (antibody, human IgG1, kappa, V domains shown) VH: EQQLLESGGGLVQPGGSLRLSCAVSGFSLSNYAMIWVRQAPGKGLEWVGTISLGGYTYYANWAKGRFTISKDSSKTTVYLQMNSLRAEDTAVYYCARARWSTDSAIYTYAFDPWGPGTLVTVSS VL: DYQMTQSPSSLSASVGDRVTITCQASQSISSYLSWYQQKPGKRPKLLIYKASTLASGVPSRFSGSGSGTDFTLTISSLQPEDFATYYCQQGYTSSNIDNIFGGGTKVEIKR

>  <measure_unit>
ratio

>  <Relative MFI>
0.87

$$$$
>  <binder>
hu.Ab4.H4L1 (antibody, human IgG1, kappa, V domains shown) VH: EQQLLESGGGLVQPGGSLRLSCAVSGFSLSNYAMIWVRQAPGKGLEWVSTISLGGYTYYANWAKGRFTISKDSSKTTVYLQMNSLRAEDTAVYFCARARWSTDSAIYTYAFDPWGPGTLVTVSS VL: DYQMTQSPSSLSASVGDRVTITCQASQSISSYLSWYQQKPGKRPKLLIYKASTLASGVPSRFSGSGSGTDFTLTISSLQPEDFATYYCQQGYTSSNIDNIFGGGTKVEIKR

>  <measure_unit>
ratio

>  <Relative MFI>
1.06

$$$$
>  <binder>
hu.Ab4.H8L1 (antibody, human IgG1, kappa, V domains shown) VH: EQQLLESGGGLVQPGGSLRLSCAVSGFSLSNYAMIWVRQAPGKGLEWVGTISLGGYTYYANWAKGRFTISKDSSKTTLYLQMNSLRAEDTAVYFCARARWSTDSAIYTYAFDPWGPGTLVTVSS VL: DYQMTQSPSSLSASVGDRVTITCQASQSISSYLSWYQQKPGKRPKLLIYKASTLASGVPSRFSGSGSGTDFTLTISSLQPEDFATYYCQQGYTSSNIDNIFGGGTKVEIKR

>  <measure_unit>
ratio

>  <Relative MFI>
0.72

$$$$
>  <binder>
hu.Ab4.H11L1 (antibody, human IgG1, kappa, V domains shown) VH: EVQLLESGGGLVQPGGSLRLSCAASGFSLSNYAMIWVRQAPGKGLEWVSTISLGGYTYYANWAKGRFTISRDNSKNTLYLQMNSLRAEDTAVYYCARARWSTDSAIYTYAFDPWGQGTLVTVSS VL: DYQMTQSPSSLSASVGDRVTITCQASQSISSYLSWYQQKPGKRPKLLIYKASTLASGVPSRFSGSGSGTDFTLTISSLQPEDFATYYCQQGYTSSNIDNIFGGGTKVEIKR

>  <measure_unit>
ratio

>  <Relative MFI>
0.66

$$$$

Now turn to the next binder.
Relative MFI reading for rb.Ab4 (antibody, V domains shown, Rabbit variable regions; also called parental rabbit antibody Ab4) VH: QSVEESGGRLVTPGTPLTLTCTVSGFSLSNYAMIWVRQAPGEGLEWVGTISLGGYTYYANWAKGRFTISKTSTTVDLKISSPTTEDTATYFCARARWSTDSAIYTYAFDPWGPGTLVTVSS VL: AYDMTQTPASVEVAVGGTVTIKCQASQSISSYLSWYQQKPGQRPELLIYKASTLASGVSSRFKGSGSGTQFTLTISDLECADAATYYCQQGYTSSNIDNIFGGGTEVVVK : 1
